test: qHTS Screen of the MIPE 4.0 Collection Against Ewings Sarcoma (EW8) (AID 1259255); settings: EW8 Ewing sarcoma viability, CellTiter-Glo, 48 h; series mostly up to 45.8 µM; note: nearly all actives have a fitted effect of over 35% in size
Results filed as inconclusive are left out. The source made the active and inactive calls. Calls come from the whole dose curve; as a rule, active = well fitted inhibition curve with a large enough effect; inconclusive = small, poorly fitted or top-dose-only effect; inactive = no such curve, though single readings can be large or run the other way.
Labels: active, inactive

structure | label
COc1cc(NCc2ccc3nc(N)nc(N)c3c2C)cc(OC)c1OC | active
CC(=O)[C@H]1CC[C@H]2[C@@H]3CC=C4C[C@@H](O)CC[C@]4(C)[C@H]3CC[C@]12C | inactive
CC[C@H](NC(C)C)[C@H](O)c1ccc(O)c2[nH]c(=O)ccc12 | inactive
CC(C)OC(=O)C(C(=O)OC(C)C)=C1SC=CS1 | inactive
CCc1cc(C(N)=S)ccn1 | inactive

Where do the numbers come from? From PubChem BioAssay (NCATS).
